Measured values drawn from patent US8916565B2 for this set.

molecular target: UniProt:Q15858; test: E-VIPR optical membrane potential assay with electrical stimulation; details: active against one or more sodium channels; Table 3 does not name the assay or NaV subtype; read-out: Binned Activity Data (IC50)
Sequence (Q15858 whole entry): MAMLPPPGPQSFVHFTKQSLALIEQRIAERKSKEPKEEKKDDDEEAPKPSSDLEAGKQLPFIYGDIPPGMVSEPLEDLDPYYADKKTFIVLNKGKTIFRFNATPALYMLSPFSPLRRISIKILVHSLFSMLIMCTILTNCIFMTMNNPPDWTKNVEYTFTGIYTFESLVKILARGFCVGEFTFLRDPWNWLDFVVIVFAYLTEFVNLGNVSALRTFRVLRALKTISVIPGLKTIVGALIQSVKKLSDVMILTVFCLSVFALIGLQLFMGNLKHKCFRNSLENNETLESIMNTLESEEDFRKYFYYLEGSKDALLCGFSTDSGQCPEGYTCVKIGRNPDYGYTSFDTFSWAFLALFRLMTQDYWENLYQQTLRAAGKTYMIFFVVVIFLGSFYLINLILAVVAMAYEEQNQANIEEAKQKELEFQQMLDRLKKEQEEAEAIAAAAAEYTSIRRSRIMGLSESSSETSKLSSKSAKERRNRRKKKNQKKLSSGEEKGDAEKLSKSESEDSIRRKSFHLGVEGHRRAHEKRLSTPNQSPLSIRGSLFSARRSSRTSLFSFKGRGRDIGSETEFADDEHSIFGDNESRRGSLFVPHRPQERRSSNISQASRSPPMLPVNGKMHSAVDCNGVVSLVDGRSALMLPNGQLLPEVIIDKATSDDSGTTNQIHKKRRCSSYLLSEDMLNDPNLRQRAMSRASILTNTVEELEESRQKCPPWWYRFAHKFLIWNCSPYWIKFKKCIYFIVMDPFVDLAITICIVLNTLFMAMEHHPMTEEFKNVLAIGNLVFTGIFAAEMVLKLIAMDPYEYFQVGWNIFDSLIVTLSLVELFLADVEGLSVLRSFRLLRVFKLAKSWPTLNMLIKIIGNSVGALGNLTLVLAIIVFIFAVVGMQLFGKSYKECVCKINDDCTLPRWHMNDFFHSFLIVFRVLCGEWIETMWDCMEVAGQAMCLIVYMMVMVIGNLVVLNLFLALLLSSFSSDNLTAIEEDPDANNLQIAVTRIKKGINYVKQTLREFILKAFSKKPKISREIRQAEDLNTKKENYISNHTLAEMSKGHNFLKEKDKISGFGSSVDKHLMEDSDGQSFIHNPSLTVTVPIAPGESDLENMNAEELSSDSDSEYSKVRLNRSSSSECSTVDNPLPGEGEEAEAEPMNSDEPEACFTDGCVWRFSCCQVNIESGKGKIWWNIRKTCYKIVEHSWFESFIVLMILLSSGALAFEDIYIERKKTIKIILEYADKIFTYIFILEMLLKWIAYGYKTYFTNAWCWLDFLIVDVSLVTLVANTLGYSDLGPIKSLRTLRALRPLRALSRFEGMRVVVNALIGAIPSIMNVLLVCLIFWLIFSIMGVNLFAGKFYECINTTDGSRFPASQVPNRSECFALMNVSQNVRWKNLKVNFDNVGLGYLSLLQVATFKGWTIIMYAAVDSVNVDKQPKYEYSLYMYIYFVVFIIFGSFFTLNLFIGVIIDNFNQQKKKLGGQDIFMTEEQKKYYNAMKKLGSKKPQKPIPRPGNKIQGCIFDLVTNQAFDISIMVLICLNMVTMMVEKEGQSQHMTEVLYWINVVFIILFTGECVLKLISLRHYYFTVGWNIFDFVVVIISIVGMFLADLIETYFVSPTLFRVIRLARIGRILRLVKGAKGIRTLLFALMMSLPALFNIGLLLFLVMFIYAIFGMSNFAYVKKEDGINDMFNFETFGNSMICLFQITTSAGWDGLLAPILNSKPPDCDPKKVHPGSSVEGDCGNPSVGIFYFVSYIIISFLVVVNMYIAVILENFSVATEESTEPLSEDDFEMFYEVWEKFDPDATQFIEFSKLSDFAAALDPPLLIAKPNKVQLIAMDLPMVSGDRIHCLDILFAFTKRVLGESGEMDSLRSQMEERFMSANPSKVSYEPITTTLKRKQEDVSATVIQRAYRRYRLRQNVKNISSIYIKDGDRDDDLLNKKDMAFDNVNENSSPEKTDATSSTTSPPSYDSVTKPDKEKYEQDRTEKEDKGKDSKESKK
measurement type: IC50

Recorded results for 5 compounds are shown here.
test smiles	target entity	IC50
Cc1cc(C(=O)N2CCC3(CC2)c2ccc(C(F)(F)C(F)(F)F)n2CCN3C)ccc1C(C)(C)O	UniProt:Q15858	≤ 2000 nM
Cc1cc(C(=O)N2CCC3(CC2)c2ccc(C(=O)C(F)(F)F)n2CCN3C)cnc1OC(C)C	UniProt:Q15858	≤ 2000 nM
Cc1cc(C(=O)N2CCC3(CC2)c2ccc(C#N)n2CCN3C)ccc1OC(C)C	UniProt:Q15858	2000 to 5000 nM
CCCCOc1cc(C(=O)N2CCC3(CC2)c2ccc(Cl)n2CCN3C)ccc1OC	UniProt:Q15858	> 5000 nM
COc1cc(C(=O)N2CCC3(CC2)c2ccc(C(=O)C(C)(C)C)n2CCN3C)ccc1OC(C)C	UniProt:Q15858	≤ 2000 nM

### Prompt Please report IC50 for the following compound: "CNS(=O)(=O)c1ccc(C(=O)N2CCC3(CC2)c2ccc(C(F)(F)C(F)(F)F)n2CCN3C)cc1C"
### Response ≤ 2000 nM

### Prompt Please report IC50 for the following compound: "CN1CCn2c(C(F)(F)F)ccc2C12CCN(C(=O)c1ccc(C(C)(C)O)cc1)CC2"
### Response ≤ 2000 nM

### Prompt Please report IC50 for the following compound: "CN1CCn2c(Cl)ccc2C12CCN(C(=O)c1ccc(OC(F)(F)F)cc1)CC2"
### Response > 5000 nM
